Data credit: ChEMBL document CHEMBL2440050

tested on: MDA-MB-468; assay: Growth inhibition of human MDA-MB-468 cells after 72 hrs by MTS assay; type: functional, cell-based; conditions: MDA-MB-468, 72 h
Each record here notes measured IC50.
reported-endpoint: IC50 (nM)

cpd_smiles=CC[C@]1(O)C[C@@H]2CN(CCc3c([nH]c4ccccc34)[C@@](C(=O)OC)(c3cc4c(cc3OC)N(C)[C@H]3[C@@](O)(C(=O)OC)[C@H](OC(C)=O)[C@]5(CC)C=CCN6CC[C@]43[C@@H]65)C2)C1 val=4.6
cpd_smiles=CC[C@]1(NC(=O)N2CC=CCC2)C[C@H]2CN(CCc3c([nH]c4ccccc34)[C@@](C(=O)OC)(c3cc4c(cc3OC)N(C)[C@H]3[C@@](O)(C(=O)OC)[C@H](OC(C)=O)[C@]5(CC)C=CCN6CC[C@]43[C@@H]65)C2)C1 val=0.4
cpd_smiles=CC[C@]1(NC(=O)N2Cc3ccccc3C2)C[C@H]2CN(CCc3c([nH]c4ccccc34)[C@@](C(=O)OC)(c3cc4c(cc3OC)N(C)[C@H]3[C@@](O)(C(=O)OC)[C@H](OC(C)=O)[C@]5(CC)C=CCN6CC[C@]43[C@@H]65)C2)C1 val=0.39
cpd_smiles=CC[C@]1(NC(=O)N2CCc3ccccc3C2)C[C@H]2CN(CCc3c([nH]c4ccccc34)[C@@](C(=O)OC)(c3cc4c(cc3OC)N(C)[C@H]3[C@@](O)(C(=O)OC)[C@H](OC(C)=O)[C@]5(CC)C=CCN6CC[C@]43[C@@H]65)C2)C1 val=0.12

====

assay: Growth inhibition of human LS 174T cells after 72 hrs by MTS assay; format: functional, cell-based; conditions: LS174T
pIC50: −log10 of the molar value.
reported-endpoint: pIC50

compound=CC[C@]1(NC(=O)N2Cc3ccccc3C2)C[C@H]2CN(CCc3c([nH]c4ccccc34)[C@@](C(=O)OC)(c3cc4c(cc3OC)N(C)[C@H]3[C@@](O)(C(=O)OC)[C@H](OC(C)=O)[C@]5(CC)C=CCN6CC[C@]43[C@@H]65)C2)C1 reported_endpoint=pIC50 val=9.35
compound=CC[C@]1(NC(=O)N2CCc3ccccc3C2)C[C@H]2CN(CCc3c([nH]c4ccccc34)[C@@](C(=O)OC)(c3cc4c(cc3OC)N(C)[C@H]3[C@@](O)(C(=O)OC)[C@H](OC(C)=O)[C@]5(CC)C=CCN6CC[C@]43[C@@H]65)C2)C1 reported_endpoint=pIC50 val=9.52
compound=CC[C@]1(NC(=O)N2CC=CCC2)C[C@H]2CN(CCc3c([nH]c4ccccc34)[C@@](C(=O)OC)(c3cc4c(cc3OC)N(C)[C@H]3[C@@](O)(C(=O)OC)[C@H](OC(C)=O)[C@]5(CC)C=CCN6CC[C@]43[C@@H]65)C2)C1 reported_endpoint=pIC50 val=9.34
compound="CC[C@]1(O)C[C@@H]2CN(CCc3c([nH]c4ccccc34)[C@@](C(=O)OC)(c3cc4c(cc3OC)N(C)[C@H]3[C@@](O)(C(=O)OC)[C@H](OC(C)=O)[C@]5(CC)C=CCN6CC[C@]43[C@@H]65)C2)C1 [VINBLASTINE]" reported_endpoint=pIC50 val=7.71

====

Overview of recorded IC50 for various compounds
test: Growth inhibition of human KPL4 cells after 72 hrs by MTS assay; assay type: functional, cell-based; conditions: KPL4, 72 h
reported-endpoint: IC50 (nM)

cpd_smiles=CC[C@]1(NC(=O)N2CCc3ccccc3C2)C[C@H]2CN(CCc3c([nH]c4ccccc34)[C@@](C(=O)OC)(c3cc4c(cc3OC)N(C)[C@H]3[C@@](O)(C(=O)OC)[C@H](OC(C)=O)[C@]5(CC)C=CCN6CC[C@]43[C@@H]65)C2)C1 val=0.06
cpd_smiles=CC[C@]1(NC(=O)N2CC=CCC2)C[C@H]2CN(CCc3c([nH]c4ccccc34)[C@@](C(=O)OC)(c3cc4c(cc3OC)N(C)[C@H]3[C@@](O)(C(=O)OC)[C@H](OC(C)=O)[C@]5(CC)C=CCN6CC[C@]43[C@@H]65)C2)C1 val=0.06
cpd_smiles=CC[C@]1(O)C[C@@H]2CN(CCc3c([nH]c4ccccc34)[C@@](C(=O)OC)(c3cc4c(cc3OC)N(C)[C@H]3[C@@](O)(C(=O)OC)[C@H](OC(C)=O)[C@]5(CC)C=CCN6CC[C@]43[C@@H]65)C2)C1 val=2.9
cpd_smiles=CC[C@]1(NC(=O)N2Cc3ccccc3C2)C[C@H]2CN(CCc3c([nH]c4ccccc34)[C@@](C(=O)OC)(c3cc4c(cc3OC)N(C)[C@H]3[C@@](O)(C(=O)OC)[C@H](OC(C)=O)[C@]5(CC)C=CCN6CC[C@]43[C@@H]65)C2)C1 val=0.04
